Quick reference: melting point of the listed items.

See these solved cases before continuing.
| compound | result |
| --- | --- |
| CN(Cc1cc2c(=O)c(C(=O)NCc3ccc(Cl)cc3)cn(C)c2s1)CC(O)c1cccnc1 (racemic) [Example 1] | 160 to 162 °C |
| CN(Cc1cc2c(=O)c(C(=O)NCc3ccc(Cl)cc3)cn(C)c2s1)CC(O)c1cccnc1 (single isomer, unassigned; (+)) [Example 2] | 132 to 135 °C |
| Cc1cccc(C(O)CN(C)Cc2cc3c(=O)c(C(=O)NCc4ccc(Cl)cc4)cn(C)c3s2)n1 (racemic) [Example 6] | 158 to 162 °C |

// moving on: another record for melting point
Input line: For the compound CN(Cc1cc2c(=O)c(C(=O)NCc3ccc(Br)cc3)cn(C)c2s1)C[C@@H](O)c1ccccn1 [Example 25] , report melting point.
Output line: 151 to 153 °C

---

- measurement target: HCMV polymerase (Human cytomegalovirus)
- Construct: made in house; host or cells: recombinant baculovirus-infected SF-9 cells
- Sequence (P08546 whole entry): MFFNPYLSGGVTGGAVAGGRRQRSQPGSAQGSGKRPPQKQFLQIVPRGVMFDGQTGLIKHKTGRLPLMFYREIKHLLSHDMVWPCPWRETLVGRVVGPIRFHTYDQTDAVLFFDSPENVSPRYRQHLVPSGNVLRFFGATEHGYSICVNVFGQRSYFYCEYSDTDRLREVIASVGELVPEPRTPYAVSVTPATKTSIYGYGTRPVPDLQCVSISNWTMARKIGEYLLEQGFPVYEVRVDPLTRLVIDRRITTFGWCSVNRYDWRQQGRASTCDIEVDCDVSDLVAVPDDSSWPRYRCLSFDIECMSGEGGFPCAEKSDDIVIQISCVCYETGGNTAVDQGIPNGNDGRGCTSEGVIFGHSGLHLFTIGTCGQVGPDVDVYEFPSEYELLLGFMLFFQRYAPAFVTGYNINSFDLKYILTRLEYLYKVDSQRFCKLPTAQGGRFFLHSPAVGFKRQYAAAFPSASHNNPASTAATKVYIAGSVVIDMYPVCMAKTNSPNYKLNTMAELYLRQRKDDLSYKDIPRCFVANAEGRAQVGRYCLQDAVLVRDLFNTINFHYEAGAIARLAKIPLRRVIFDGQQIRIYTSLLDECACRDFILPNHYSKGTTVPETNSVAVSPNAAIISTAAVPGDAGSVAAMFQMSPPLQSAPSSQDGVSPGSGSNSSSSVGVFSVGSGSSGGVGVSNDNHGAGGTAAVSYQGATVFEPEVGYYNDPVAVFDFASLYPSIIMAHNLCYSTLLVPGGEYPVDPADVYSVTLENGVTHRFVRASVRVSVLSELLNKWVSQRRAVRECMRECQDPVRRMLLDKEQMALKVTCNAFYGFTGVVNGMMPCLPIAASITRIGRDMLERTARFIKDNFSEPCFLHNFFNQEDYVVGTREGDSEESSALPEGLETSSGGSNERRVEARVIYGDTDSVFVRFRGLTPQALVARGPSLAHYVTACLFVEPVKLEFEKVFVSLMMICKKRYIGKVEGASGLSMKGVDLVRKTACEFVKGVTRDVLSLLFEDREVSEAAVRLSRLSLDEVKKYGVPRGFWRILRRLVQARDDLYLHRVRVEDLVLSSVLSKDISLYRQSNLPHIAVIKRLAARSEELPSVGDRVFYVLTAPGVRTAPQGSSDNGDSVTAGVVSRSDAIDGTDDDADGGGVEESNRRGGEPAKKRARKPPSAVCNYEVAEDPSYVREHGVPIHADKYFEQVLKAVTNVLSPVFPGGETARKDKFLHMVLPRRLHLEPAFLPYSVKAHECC
- assay summary: HCMV polymerase scintillation proximity assay (SPA)
- Assay type: biochemical
Quick reference: IC50 of the listed items.
Write the number in nM without appending the unit.

| compound | parameter measured | uom | number |
| --- | --- | --- | --- |
| CN(Cc1cc2c(=O)c(C(=O)NCc3ccc(Cl)cc3)cn(CCCO)c2s1)CC(O)c1ncccn1 (racemic) | IC50 | nM | 1120 |

Lab note: next compound to report on.
Input line: Identify IC50 associated with the compound CN(Cc1cc2c(=O)c(C(=O)NCc3ccc(Cl)cc3)cn(CCCO)c2s1)C[C@@H](O)c1ccccn1
Output line: 1300

---

- measurement target: VZV polymerase (Varicella-zoster virus, UniProt P09252)
- Sequence (P09252 whole entry): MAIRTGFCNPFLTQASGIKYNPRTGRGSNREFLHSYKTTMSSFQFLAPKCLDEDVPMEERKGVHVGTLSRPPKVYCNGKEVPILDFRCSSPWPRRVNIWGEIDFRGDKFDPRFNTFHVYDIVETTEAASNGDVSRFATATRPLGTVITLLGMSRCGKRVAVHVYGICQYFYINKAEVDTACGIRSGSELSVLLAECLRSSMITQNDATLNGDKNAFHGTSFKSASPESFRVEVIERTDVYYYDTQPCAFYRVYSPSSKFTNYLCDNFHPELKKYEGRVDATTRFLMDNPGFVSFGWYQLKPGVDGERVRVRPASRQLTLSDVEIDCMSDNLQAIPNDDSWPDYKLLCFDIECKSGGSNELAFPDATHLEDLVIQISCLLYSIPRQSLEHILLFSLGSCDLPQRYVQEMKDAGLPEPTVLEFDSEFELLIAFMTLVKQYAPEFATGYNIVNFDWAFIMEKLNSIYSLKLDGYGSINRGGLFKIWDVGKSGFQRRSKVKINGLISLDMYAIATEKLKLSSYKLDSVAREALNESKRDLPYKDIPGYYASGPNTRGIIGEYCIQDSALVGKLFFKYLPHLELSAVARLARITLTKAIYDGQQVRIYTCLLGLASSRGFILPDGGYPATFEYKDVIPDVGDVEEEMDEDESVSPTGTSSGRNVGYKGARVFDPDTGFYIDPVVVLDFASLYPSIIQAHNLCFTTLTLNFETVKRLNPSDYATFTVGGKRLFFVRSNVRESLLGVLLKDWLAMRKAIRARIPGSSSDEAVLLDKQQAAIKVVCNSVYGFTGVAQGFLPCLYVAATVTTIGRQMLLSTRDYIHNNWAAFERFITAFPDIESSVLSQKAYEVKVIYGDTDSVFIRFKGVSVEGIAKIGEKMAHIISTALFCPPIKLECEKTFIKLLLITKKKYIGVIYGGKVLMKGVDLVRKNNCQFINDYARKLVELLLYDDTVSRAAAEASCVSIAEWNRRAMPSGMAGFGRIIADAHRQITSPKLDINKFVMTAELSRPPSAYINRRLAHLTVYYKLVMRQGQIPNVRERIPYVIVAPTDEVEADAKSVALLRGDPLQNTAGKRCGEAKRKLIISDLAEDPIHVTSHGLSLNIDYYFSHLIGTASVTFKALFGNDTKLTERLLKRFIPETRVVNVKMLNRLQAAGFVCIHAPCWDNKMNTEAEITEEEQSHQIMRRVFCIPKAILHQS
parameter measured: IC50 (nM)
# value in nM; strip the unit string

Sample answers from the record:
| molecule | uom | number |
| --- | --- | --- |
| CN(Cc1cc2c(=O)c(C(=O)NCc3ccc(Cl)cc3)cn(C)c2s1)C[C@@H](O)c1ncccn1 [Example 9] | nM | 30 |
| CN(Cc1cc2c(=O)c(C(=O)NCc3ccc(Cl)cc3)cn(C)c2s1)CC(O)c1ccccn1 (racemic) [Example 4] | nM | 30 |
| CN(Cc1cc2c(=O)c(C(=O)NCc3ccc(Cl)cc3)cn(C)c2s1)CC(O)c1cccnc1 (racemic) [Example 1] | nM | 220 |

Input line: Report IC50 on VZV polymerase (Varicella-zoster virus, UniProt P09252) for this entry: CCn1cc(C(=O)NCc2ccc(Cl)cc2)c(=O)c2cc(CN(C)CC(O)c3cnccn3)sc21 (racemic) [Example 13]
Output line: 170

Input line: Give IC50 only, for CN(Cc1cc2c(=O)c(C(=O)NCc3ccc(Cl)cc3)cn(C)c2s1)C[C@@H](O)c1ccccn1 [Example 5] , using VZV polymerase (Varicella-zoster virus, UniProt P09252) data.
Output line: 20

Input line: Write IC50 of CN(Cc1cc2c(=O)c(C(=O)NCc3ccc(Cl)cc3)cn(C)c2s1)CC(O)c1ccc2ccccc2n1 (racemic) [Example 7] ; system used: VZV polymerase (Varicella-zoster virus, UniProt P09252)
Output line: 40

Input line: Please report IC50 with VZV polymerase (Varicella-zoster virus, UniProt P09252) for item CN(Cc1cc2c(=O)c(C(=O)NCc3ccc(Cl)cc3)cn(C)c2s1)CC(O)c1ccncc1 (racemic) [Example 3] .
Output line: 220

Input line: Would you please give the reported IC50 of CCCn1cc(C(=O)NCc2ccc(Cl)cc2)c(=O)c2cc(CN(C)CC(O)c3cnccn3)sc21 (racemic) [Example 16] with VZV polymerase (Varicella-zoster virus, UniProt P09252)?
Output line: 210

Input line: Find the measured IC50 of CN(Cc1cc2c(=O)c(C(=O)NCc3ccc(Cl)cc3)cn(C)c2s1)C[C@@H](O)c1cnccn1 [Example 11] with VZV polymerase (Varicella-zoster virus, UniProt P09252) as test system.
Output line: 20

Input line: Quote VZV polymerase (Varicella-zoster virus, UniProt P09252) IC50 for entry CN(Cc1cc2c(=O)c(C(=O)NCc3ccc(Cl)cc3)cn(C)c2s1)CC(O)c1cccnc1 (single isomer, unassigned; (+)) [Example 2] .
Output line: 130

Input line: Check VZV polymerase (Varicella-zoster virus, UniProt P09252) data and give IC50 for CN(Cc1cc2c(=O)c(C(=O)NCc3ccc(Cl)cc3)cn(C)c2s1)CC(O)c1cnccn1 (racemic) [Example 10] .
Output line: 50

Input line: Look up and report IC50, with VZV polymerase (Varicella-zoster virus, UniProt P09252) as system, for CN(Cc1cc2c(=O)c(C(=O)NCc3ccc(Cl)cc3)cn(C)c2s1)CC(O)c1ncccn1 (racemic) [Example 8]
Output line: 50

Input line: Write down measured IC50 (VZV polymerase (Varicella-zoster virus, UniProt P09252)) for this molecule. CN(Cc1cc2c(=O)c(C(=O)NCc3ccc(Cl)cc3)cn(C)c2s1)CC(O)c1cccnn1 (centres unmarked) [Example 12]
Output line: 230

Input line: // fetch IC50 for CN(Cc1cc2c(=O)c(C(=O)NCc3ccc(F)cc3)cn(C)c2s1)C[C@@H](O)c1ccccn1 [Example 23] ; system: VZV polymerase (Varicella-zoster virus, UniProt P09252)
Output line: 110

Attribution: patent US20040110787A1
